Source of measurements: ChEMBL document CHEMBL5335833

- assay: Cytotoxicity against mouse T-lymphocytes
- Type: toxicity, cell-based, T-cell
observation type: CC50 (µM)

| molecule | limit qualifier | experimental result |
| --- | --- | --- |
| COC1=C2C(=CC3Oc4ccc(Cl)c(OC)c4C(=O)C13)O[C@H]1O[C@@H](OC)C[C@@H]21 (stereo partly drawn) | > | 40 |
| CC(C)(O)CCc1ccc(O)c2c1OC1C=C3O[C@H]4OCC[C@H]4C3=C(O)C1C2=O (stereo partly drawn) | = | 5.2 |
| CC(C)(O)CCc1ccc(O)c2c(=O)c3c(O)c4c(cc3oc12)O[C@H]1OC=C[C@@]41O [AUSTOCYSTIN D] | = | 7.8 |
| C[C@]12CCC[C@H](O1)c1c(cc3c(c1O)C(=O)c1c(O)cc(O)cc1C3=O)O2 | > | 40 |
| CO[C@H]1C[C@H]2C3=C(O)C4C(=O)c5c(O)ccc(CCC(C)(C)O)c5OC4C=C3O[C@H]2O1 (stereo partly drawn) | = | 15 |
| COc1cc(OC)c2c(c1)C(=O)C1C=C3O[C@@]4(C)CC[C@H](O)[C@H](O4)C3=C(O)C1C2=O (stereo partly drawn) | > | 40 |
| CCCCC[C@H](O)c1c(O)cc2c(c1O)C(=O)C1C(O)=CC(O)=CC1C2=O (stereo partly drawn) | > | 40 |
| COC1=C2C(=CC3Oc4c(CCC(C)(C)O)ccc(O)c4C(=O)C13)O[C@H]1OC=C[C@@H]21 (stereo partly drawn) | = | 17 |

* * *

Each entry below lists one item and its recorded CC50 value.
- assay: Cytotoxicity against mouse T-lymphocytes
- Format: toxicity, cell-based, T-cell

| compound | limit qualifier | CC50, µM |
| --- | --- | --- |
| CO[C@@H]1C[C@@]2(O)C3=C(O)C4C(=O)c5c(O)ccc(CCC(C)(C)O)c5OC4C=C3O[C@H]2O1 (stereo partly specified) | = | 7.7 |
| CC(C)(O)C[C@H](O)c1ccc(O)c2c1OC1C=C3O[C@H]4OC=C[C@@]4(O)C3=C(O)C1C2=O (stereo partly specified) | = | 16 |
| COc1c(Cl)ccc2c1C(=O)C1C(O)=C3C(=CC1O2)O[C@H]1OC=C[C@@]31O (stereo partly specified) | > | 40 |
| COC1=C2C(=CC3Oc4c(OC)cc(Cl)c(OC)c4C(=O)C13)O[C@H]1O[C@@H](O)C[C@@H]21 (stereo partly specified) | = | 31 |
| CC(C)(O)C[C@H](O)c1ccc(O)c2c1OC1C=C3O[C@H]4OC=C[C@H]4C3=C(O)C1C2=O (stereo partly specified) | = | 8.1 |
| CCCCC[C@H](OC)c1c(O)cc2c(c1O)C(=O)C1C(O)=CC(O)=CC1C2=O (stereo partly specified) | > | 40 |
| CO[C@@H]1C[C@H]2C3=C(O)C4C(=O)c5c(O)ccc(CCC(C)(C)O)c5OC4C=C3O[C@H]2O1 (stereo partly specified) | = | 12 |
| CO[C@H]1C[C@@]2(O)C3=C(O)C4C(=O)c5c(O)ccc(CCC(C)(C)O)c5OC4C=C3O[C@H]2O1 (stereo partly specified) | = | 8.9 |
| COC1=C2C(=CC3Oc4ccc(Cl)c(OC)c4C(=O)C13)O[C@H]1O[C@H](OC(C)=O)C[C@@H]21 (stereo partly specified) | = | 28 |
| O=C1c2c(O)cccc2OC2C=C3O[C@H]4OC=C[C@@]4(O)C3=C(O)C12 (stereo partly specified) | > | 40 |
| CC(C)=CCc1ccc(O)c2c1OC1C=C3O[C@H]4OC=C[C@@]4(O)C3=C(O)C1C2=O (stereo partly specified) | = | 15 |
